# measurement.target: FGFR2-IIIb (human) (UniProt P21802)
# Sequence (P21802 other isoform, or with tags, fused parts or gaps limits assumed): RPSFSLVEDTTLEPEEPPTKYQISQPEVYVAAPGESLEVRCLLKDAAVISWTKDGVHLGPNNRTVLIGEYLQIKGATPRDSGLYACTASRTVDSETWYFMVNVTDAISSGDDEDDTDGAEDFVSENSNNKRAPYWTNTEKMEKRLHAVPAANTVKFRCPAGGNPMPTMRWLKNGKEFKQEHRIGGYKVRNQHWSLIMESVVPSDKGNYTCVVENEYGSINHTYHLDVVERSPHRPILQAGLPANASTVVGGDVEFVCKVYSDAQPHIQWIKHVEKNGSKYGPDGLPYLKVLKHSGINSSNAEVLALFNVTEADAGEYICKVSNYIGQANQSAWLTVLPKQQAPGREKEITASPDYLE
# experimental.details: SPR (Biacore T100), IgG captured by anti-human Fc, FGFR flowed
recorded.metric: Kd (nM)
Please give a number only; it is taken to be in nM.

- binder: "2B.1.25 (antibody, human IgG1, kappa, V domains shown) VH: EVQLVESGGGLVQPGGSLRLSCAASGFTFTSTGISWVRQAPGKGLEWVGRWHPWMGSTNYADSVKGRFTISADTSKNTAYLQMNSLRAEDTAVYYCARTYGIYDLYVDYTEYVMDYWGQGTLVTVSS VL: DIQMTQSPSSLSASVGDRVTITCRASQDVDTSLAWYKQKPGKAPKLLIYSASFLYSGVPSRFSGSGSGTDFTLTISSLQPEDFATYYCQQSTGHPQTFGQGTKVEIKR"
  readout.value: 2.3
- binder: "2B.1.82 (antibody, human IgG1, kappa, V domains shown) VH: EVQLVESGGGLVQPGGSLRLSCAASGFTFTSTGISWVRQAPGKGLEWVGRINFFSGSTNYADSVKGRFTISADTSKNTAYLQMNSLRAEDTAVYYCARTYGIYDLYVDYTEYVMDYWGQGTLVTVSS VL: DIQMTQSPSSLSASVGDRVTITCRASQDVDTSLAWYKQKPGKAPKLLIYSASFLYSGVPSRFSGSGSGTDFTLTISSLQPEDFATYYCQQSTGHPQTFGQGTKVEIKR"
  readout.value: 4.9
- binder: "2B.1.52 (antibody, human IgG1, kappa, V domains shown) VH: EVQLVESGGGLVQPGGSLRLSCAASGFTFTSTGISWVRQAPGKGLEWVGRFSLGDGSTNYADSVKGRFTISADTSKNTAYLQMNSLRAEDTAVYYCARTYGIYDLYVDYTEYVMDYWGQGTLVTVSS VL: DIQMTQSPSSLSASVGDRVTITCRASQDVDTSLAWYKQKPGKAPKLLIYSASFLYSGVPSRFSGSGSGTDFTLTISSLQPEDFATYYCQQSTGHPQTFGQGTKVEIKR"
  readout.value: 3.9

Input: Please list Kd recorded for the binder 2B.1.20 (antibody, human IgG1, kappa, V domains shown) VH: EVQLVESGGGLVQPGGSLRLSCAASGFTFTSTGISWVRQAPGKGLEWVGRLDVFWGSTNYADSVKGRFTISADTSKNTAYLQMNSLRAEDTAVYYCARTYGIYDLYVDYTEYVMDYWGQGTLVTVSS VL: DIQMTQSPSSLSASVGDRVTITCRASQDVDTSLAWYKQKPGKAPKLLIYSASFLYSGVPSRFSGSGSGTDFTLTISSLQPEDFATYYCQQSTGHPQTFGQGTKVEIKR
Output: 1.2

Input: Please list Kd recorded for the binder 2B.1.44 (antibody, human IgG1, kappa, V domains shown) VH: EVQLVESGGGLVQPGGSLRLSCAASGFTFTSTGISWVRQAPGKGLEWVGRWWSWGGSTNYADSVKGRFTISADTSKNTAYLQMNSLRAEDTAVYYCARTYGIYDLYVDYTEYVMDYWGQGTLVTVSS VL: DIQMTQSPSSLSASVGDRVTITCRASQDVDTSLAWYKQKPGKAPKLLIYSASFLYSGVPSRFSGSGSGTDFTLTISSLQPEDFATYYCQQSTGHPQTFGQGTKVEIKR
Output: 3.6

Input: Please list Kd recorded for the binder 2B.1.86 (antibody, human IgG1, kappa, V domains shown) VH: EVQLVESGGGLVQPGGSLRLSCAASGFTFTSTGISWVRQAPGKGLEWVGRLSFWTGSTNYADSVKGRFTISADTSKNTAYLQMNSLRAEDTAVYYCARTYGIYDLYVDYTEYVMDYWGQGTLVTVSS VL: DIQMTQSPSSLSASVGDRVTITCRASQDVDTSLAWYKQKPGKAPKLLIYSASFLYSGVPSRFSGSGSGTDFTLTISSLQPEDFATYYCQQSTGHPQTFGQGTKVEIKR
Output: 1.3

Input: Please list Kd recorded for the binder 2B.1.3.10 (antibody, human IgG1, kappa, V domains shown) VH: EVQLVESGGGLVQPGGSLRLSCAASGFPFTSQGISWVRQAPGKGLEWVGRTHLGDGSTNYADSVKGRFTISADTSKNTAYLQMNSLRAEDTAVYYCARTYGIYDTYDKYTEYVMDYWGQGTLVTVSS VL: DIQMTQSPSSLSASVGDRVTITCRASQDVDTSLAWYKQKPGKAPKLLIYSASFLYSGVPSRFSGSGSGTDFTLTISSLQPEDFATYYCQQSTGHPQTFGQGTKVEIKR
Output: 2.9

Input: Please list Kd recorded for the binder 2B.1.32 (antibody, human IgG1, kappa, V domains shown) VH: EVQLVESGGGLVQPGGSLRLSCAASGFTFTSTGISWVRQAPGKGLEWVGRWVGFTGSTNYADSVKGRFTISADTSKNTAYLQMNSLRAEDTAVYYCARTYGIYDLYVDYTEYVMDYWGQGTLVTVSS VL: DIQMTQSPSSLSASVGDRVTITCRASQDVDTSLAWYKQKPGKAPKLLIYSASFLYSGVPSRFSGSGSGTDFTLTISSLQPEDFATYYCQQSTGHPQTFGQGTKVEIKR
Output: 1.2

Input: Please list Kd recorded for the binder 2B.1.94 (antibody, human IgG1, kappa, V domains shown) VH: EVQLVESGGGLVQPGGSLRLSCAASGFTFTSTGISWVRQAPGKGLEWVGRLVFFSGSTNYADSVKGRFTISADTSKNTAYLQMNSLRAEDTAVYYCARTYGIYDLYVDYTEYVMDYWGQGTLVTVSS VL: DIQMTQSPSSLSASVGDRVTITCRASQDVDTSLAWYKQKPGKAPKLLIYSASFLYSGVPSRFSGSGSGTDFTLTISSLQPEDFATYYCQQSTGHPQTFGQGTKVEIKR
Output: 3.1

Input: Please list Kd recorded for the binder 2B.1.49 (antibody, human IgG1, kappa, V domains shown) VH: EVQLVESGGGLVQPGGSLRLSCAASGFTFTSTGISWVRQAPGKGLEWVGRLSFFSGSTNYADSVKGRFTISADTSKNTAYLQMNSLRAEDTAVYYCARTYGIYDLYVDYTEYVMDYWGQGTLVTVSS VL: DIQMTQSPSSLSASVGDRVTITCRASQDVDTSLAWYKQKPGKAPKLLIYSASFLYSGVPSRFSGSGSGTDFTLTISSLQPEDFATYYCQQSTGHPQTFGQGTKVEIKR
Output: 1.3
